Tested on: 282377-053-R-J1-PDC tumor spheroids, viability
PROTOCOL DETAILS: Anticancer human tumor 282377-053-R-J1-PDC patient-derived colon adenocarcinoma cell line growth inhibition [TAK]
SETUP CONDITIONS: second compound 0.3 µM; first compound 0.1 µM; stronger effect = lower value; spheroids with HUVEC and MSC
TEST READOUT: viability, T/C (%)

>>> recorded_number("CC(C)CC(NC(=O)CNC(=O)c1cc(Cl)ccc1Cl)B1OC(=O)CC(CC(=O)O)(C(=O)O)O1 (stereo unspecified) + CC(C)NCC(C(=O)N1CCN(c2ncnc3c2C(C)CC3O)CC1)c1ccc(Cl)cc1")
3.57
>>> recorded_number("COC1CC2CCC(C)C(O)(O2)C(=O)C(=O)N2CCCCC2C(=O)OC(C(C)CC2CCC(OCCO)C(OC)C2)CC(=O)C(C)C=C(C)C(O)C(OC)C(=O)C(C)CC(C)C=CC=CC=C1C (stereo unspecified) + CC(C)NCC(C(=O)N1CCN(c2ncnc3c2C(C)CC3O)CC1)c1ccc(Cl)cc1")
91.4
>>> recorded_number("CC(C)(C)c1nc(-c2cccc(NS(=O)(=O)c3c(F)cccc3F)c2F)c(-c2ccnc(N)n2)s1 + CC(C)NCC(C(=O)N1CCN(c2ncnc3c2C(C)CC3O)CC1)c1ccc(Cl)cc1")
81
>>> recorded_number("Cc1nc(NC(=O)N2CCCC2C(N)=O)sc1-c1ccnc(C(C)(C)C(F)(F)F)c1 (stereo unspecified) + CC(C)NCC(C(=O)N1CCN(c2ncnc3c2C(C)CC3O)CC1)c1ccc(Cl)cc1")
91.4
>>> recorded_number("CC(C)n1nc(-c2ccc3oc(N)nc3c2)c2c(N)ncnc21 + CC(C)NCC(C(=O)N1CCN(c2ncnc3c2C(C)CC3O)CC1)c1ccc(Cl)cc1")
56.1
>>> recorded_number("COc1c(OCCCN2CCOCC2)ccc2c3n(c(=NC(=O)c4cnc(N)nc4)nc12)CCN3 + CC(C)NCC(C(=O)N1CCN(c2ncnc3c2C(C)CC3O)CC1)c1ccc(Cl)cc1")
91.1

###

Test system: 282377-053-R-J1-PDC tumor spheroids, viability
PROTOCOL DETAILS: Anticancer human tumor 282377-053-R-J1-PDC cell line growth inhibition [TAK];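 further: spheroids exposed to drugs for seven days before readout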
SETUP CONDITIONS: second compound 3 µM; first compound 0.000316 µM; stronger effect = lower value; spheroids with HUVEC and MSC
TEST READOUT: viability, T/C (%)

>>> recorded_number("CC(C)CC(NC(=O)C(Cc1ccccc1)NC(=O)c1cnccn1)B(O)O (centres undefined) + CC(C)NCC(C(=O)N1CCN(c2ncnc3c2C(C)CC3O)CC1)c1ccc(Cl)cc1")
87.7
>>> recorded_number("CC(C)CC(NC(=O)CNC(=O)c1cc(Cl)ccc1Cl)B1OC(=O)CC(CC(=O)O)(C(=O)O)O1 (centres undefined) + CC(C)NCC(C(=O)N1CCN(c2ncnc3c2C(C)CC3O)CC1)c1ccc(Cl)cc1")
82.4
>>> recorded_number("COC1CC2CCC(C)C(O)(O2)C(=O)C(=O)N2CCCCC2C(=O)OC(C(C)CC2CCC(OCCO)C(OC)C2)CC(=O)C(C)C=C(C)C(O)C(OC)C(=O)C(C)CC(C)C=CC=CC=C1C (centres undefined) + CC(C)NCC(C(=O)N1CCN(c2ncnc3c2C(C)CC3O)CC1)c1ccc(Cl)cc1")
82.2
>>> recorded_number("CC(C)n1nc(-c2ccc3oc(N)nc3c2)c2c(N)ncnc21 + CC(C)NCC(C(=O)N1CCN(c2ncnc3c2C(C)CC3O)CC1)c1ccc(Cl)cc1")
83.5

###

System: 282377-053-R-J1-PDC tumor spheroids, viability
PROTOCOL DETAILS: Anticancer human tumor 282377-053-R-J1-PDC cell line growth inhibition [TAK];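 further: spheroids exposed to drugs for seven days before readout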
SETUP CONDITIONS: second compound 0.3 µM; first compound 0.00316 µM; stronger effect = lower value; spheroids with HUVEC and MSC
Below, each entry is listed with its recorded viability, T/C.
TEST READOUT: viability, T/C (%)

>>> recorded_number("CC(C)n1nc(-c2ccc3oc(N)nc3c2)c2c(N)ncnc21 + CC(C)NCC(C(=O)N1CCN(c2ncnc3c2C(C)CC3O)CC1)c1ccc(Cl)cc1")
95.7
>>> recorded_number("CC(C)CC(NC(=O)C(Cc1ccccc1)NC(=O)c1cnccn1)B(O)O (stereo not given) + CC(C)NCC(C(=O)N1CCN(c2ncnc3c2C(C)CC3O)CC1)c1ccc(Cl)cc1")
98.5
>>> recorded_number("COC1CC2CCC(C)C(O)(O2)C(=O)C(=O)N2CCCCC2C(=O)OC(C(C)CC2CCC(OCCO)C(OC)C2)CC(=O)C(C)C=C(C)C(O)C(OC)C(=O)C(C)CC(C)C=CC=CC=C1C (stereo not given) + CC(C)NCC(C(=O)N1CCN(c2ncnc3c2C(C)CC3O)CC1)c1ccc(Cl)cc1")
94
>>> recorded_number("CC(C)CC(NC(=O)CNC(=O)c1cc(Cl)ccc1Cl)B1OC(=O)CC(CC(=O)O)(C(=O)O)O1 (stereo not given) + CC(C)NCC(C(=O)N1CCN(c2ncnc3c2C(C)CC3O)CC1)c1ccc(Cl)cc1")
94.3
>>> recorded_number("COc1c(OCCCN2CCOCC2)ccc2c3n(c(=NC(=O)c4cnc(N)nc4)nc12)CCN3 + CC(C)NCC(C(=O)N1CCN(c2ncnc3c2C(C)CC3O)CC1)c1ccc(Cl)cc1")
95

###

Recorded viability, T/C by entry
System: 282377-053-R-J1-PDC tumor spheroids, viability
PROTOCOL DETAILS: Anticancer human tumor 282377-053-R-J1-PDC cell line growth inhibition [TAK];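 further: spheroids exposed to drugs for seven days before readout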
SETUP CONDITIONS: second compound 0.3 µM; first compound 0.001 µM; stronger effect = lower value; spheroids with HUVEC and MSC
TEST READOUT: viability, T/C

>>> result("CC(C)n1nc(-c2ccc3oc(N)nc3c2)c2c(N)ncnc21 + CC(C)NCC(C(=O)N1CCN(c2ncnc3c2C(C)CC3O)CC1)c1ccc(Cl)cc1")
"103%"
>>> result("CC(C)CC(NC(=O)CNC(=O)c1cc(Cl)ccc1Cl)B1OC(=O)CC(CC(=O)O)(C(=O)O)O1 (centres undefined) + CC(C)NCC(C(=O)N1CCN(c2ncnc3c2C(C)CC3O)CC1)c1ccc(Cl)cc1")
"93.9%"
>>> result("CC(C)CC(NC(=O)C(Cc1ccccc1)NC(=O)c1cnccn1)B(O)O (centres undefined) + CC(C)NCC(C(=O)N1CCN(c2ncnc3c2C(C)CC3O)CC1)c1ccc(Cl)cc1")
"98.3%"
>>> result("COC1CC2CCC(C)C(O)(O2)C(=O)C(=O)N2CCCCC2C(=O)OC(C(C)CC2CCC(OCCO)C(OC)C2)CC(=O)C(C)C=C(C)C(O)C(OC)C(=O)C(C)CC(C)C=CC=CC=C1C (centres undefined) + CC(C)NCC(C(=O)N1CCN(c2ncnc3c2C(C)CC3O)CC1)c1ccc(Cl)cc1")
"91.7%"

###

Test system: 282377-053-R-J1-PDC tumor spheroids, viability
PROTOCOL DETAILS: Anticancer human tumor 282377-053-R-J1-PDC cell line growth inhibition [TAK];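 further: spheroids exposed to drugs for seven days before readout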
SETUP CONDITIONS: second compound 30 µM; first compound 0.1 µM; stronger effect = lower value; spheroids with HUVEC and MSC
TEST READOUT: viability, T/C (%)

>>> recorded_number("COC1CC2CCC(C)C(O)(O2)C(=O)C(=O)N2CCCCC2C(=O)OC(C(C)CC2CCC(OCCO)C(OC)C2)CC(=O)C(C)C=C(C)C(O)C(OC)C(=O)C(C)CC(C)C=CC=CC=C1C (stereo unspecified) + CC(C)NCC(C(=O)N1CCN(c2ncnc3c2C(C)CC3O)CC1)c1ccc(Cl)cc1")
31
>>> recorded_number("CC(C)n1nc(-c2ccc3oc(N)nc3c2)c2c(N)ncnc21 + CC(C)NCC(C(=O)N1CCN(c2ncnc3c2C(C)CC3O)CC1)c1ccc(Cl)cc1")
8.24
>>> recorded_number("Cc1nc(NC(=O)N2CCCC2C(N)=O)sc1-c1ccnc(C(C)(C)C(F)(F)F)c1 (stereo unspecified) + CC(C)NCC(C(=O)N1CCN(c2ncnc3c2C(C)CC3O)CC1)c1ccc(Cl)cc1")
69.8
>>> recorded_number("CC(C)CC(NC(=O)CNC(=O)c1cc(Cl)ccc1Cl)B1OC(=O)CC(CC(=O)O)(C(=O)O)O1 (stereo unspecified) + CC(C)NCC(C(=O)N1CCN(c2ncnc3c2C(C)CC3O)CC1)c1ccc(Cl)cc1")
0.99
>>> recorded_number("COc1c(OCCCN2CCOCC2)ccc2c3n(c(=NC(=O)c4cnc(N)nc4)nc12)CCN3 + CC(C)NCC(C(=O)N1CCN(c2ncnc3c2C(C)CC3O)CC1)c1ccc(Cl)cc1")
29.7
>>> recorded_number("CC(C)(C)c1nc(-c2cccc(NS(=O)(=O)c3c(F)cccc3F)c2F)c(-c2ccnc(N)n2)s1 + CC(C)NCC(C(=O)N1CCN(c2ncnc3c2C(C)CC3O)CC1)c1ccc(Cl)cc1")
58.4

Ref: PubChem BioAssay AID2060360
